Tested on: NCI/ADR-RES ovarian
Assay: NCI tumour cell line growth inhibition, 48 h
metric: TGI (µM)
Record the value in µM, omitting the unit from your answer.

Would you please look over these solved cases?
compound	value observed
C[C@@H]1CCC2[C@@H](C)[C@H](O[C@H]3O[C@@H]4O[C@@]5(C)CCC6[C@H](C)CCC([C@H]3C)[C@]64OO5)O[C@@H]3O[C@@]4(C)CCC1[C@@]23OO4 (stereo not given in full)	15.5
Cn1cc(C2=C(c3c4n(c5ccccc35)CC(CN)C4)C(=O)NC2=O)c2ccccc21 (stereo not given)	25
COC(=O)c1cc(C)n2c1CS[C@@H]2c1ccccc1	87
CCCn1cc(C2=C(c3cn(C)c4ccccc34)C(=O)NC2=O)c2ccccc21	24.5
C[N+](C)(C)CCC(=O)N1C/C(=C\c2ccccc2)C(=O)/C(=C/c2ccccc2)C1	3.3
CC/C(Cl)=N\OC(=O)Nc1ccccc1OC(F)(F)F	35.5
COc1cc(C2c3cc4c(cc3[C@H](NC(=O)c3cccs3)C3COC(=O)[C@H]23)OCO4)cc(OC)c1OC (stereo not given in full)	0.459
CCCCCCCCCCCCOC1C(CNC(=O)C2OC3OC(C)(C)OC3C2NC(=O)CN2CCN(c3ccccn3)CC2)OC2OC(C)(C)OC21 (stereo not given)	7.39

Problem: What does the record list as TGI for "COc1ccc(Nc2c3c4c(cccc4[nH]c2=O)C(=O)c2ccccc2-3)cc1" ?
Result: 0.0526

====

Test system: A549 NSCLC
Experiment: NCI tumour cell line growth inhibition, 48 h
# GI50 per record follows

Would you please look over these solved cases?
> print(dat)
                                   molecule  metric  value.observed
1  CN(C)CCCNC(=O)c1cc(NC(=O)CCNC(=O)c2ccc3c(c2)C(=O)c2ccccc2C3=O)cn1C    GI50        > 100 µM
2  O=C(CCCCCCC(=O)N/N=C/c1ccc(N(c2ccccc2)c2ccccc2)cc1)NO    GI50         2.99 µM
3  COc1ccc(-c2cn(-c3ccc(Cl)cc3)c(=S)[nH]2)cc1OC    GI50         66.4 µM
4  CC(C)(C)C(=O)OCOP(=O)(OCOC(=O)C(C)(C)C)C1CCCN(OC(=O)c2ccccc2)C1=O (configuration not stated)    GI50         2.02 µM
5  NC(=O)c1nnn(Cc2cc(Cl)c(C(=O)c3ccc(Cl)cc3)c(Cl)c2)c1N    GI50       > 9.09 µM

Problem: What does the record list as GI50 for CCCCCCCCCCCCOC1C(CNC(=O)C2OC3OC(C)(C)OC3C2NC(=O)CN2CCN(c3ccccn3)CC2)OC2OC(C)(C)OC21 (configuration not stated) ?
Result: 1.6 µM

Problem: What does the record list as GI50 for COC1OCC(OS(=O)(=O)c2ccc(C)cc2)C(OC(=O)c2ccccc2)C1OC(=O)c1ccccc1 (configuration not stated) ?
Result: 6.14 µM

Problem: What does the record list as GI50 for "C(=N/Nc1ncnc2nc[nH]c12)/c1ccccn1" ?
Result: 1.27 µM

Problem: What does the record list as GI50 for "CC1(C)CC[C@]2(C(=O)n3ccnc3)CC[C@]3(C)[C@H](C(=O)C=C4[C@@]5(C)C=C(C#N)C(=O)C(C)(C)[C@@H]5CC[C@]43C)[C@@H]2C1" ?
Result: < 0.0214 µM

Problem: What does the record list as GI50 for O=C(O)c1cc(N/C=C2\C(=O)c3ccccc3OC2O)ccc1O (configuration not stated) ?
Result: 53.7 µg/mL

Problem: What does the record list as GI50 for "C=C1C(=O)O[C@H]2[C@H]1CC/C(C=Nc1ccc(C(F)(F)F)cc1N)=C\CC[C@@]1(C)O[C@@H]21" ?
Result: 17.2 µM

Problem: What does the record list as GI50 for "Nc1ccccc1/C=N\Nc1ccccc1" ?
Result: 4.7 µM
